- assay comment: probe aLAP1 signal on lysate-treated microarray – cell lysate, small-molecule microarray, COS7 lysate, primary screen (AID 1124);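 also: lysate comes from COS7 cells expressing LAP1 and is applied at 0.3 µg/mL; score merges spot fluorescence near 667 nm with signal-to-noise over triplicate slides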
- measurement context: probe aLAP1, fluorescence, higher = more signal
Label Yes for high-side composite z-score (at or above 0.7) and No for low-side composite z-score (below it).

compound | class name
COc1ccc(C(O)C2C=CC3C(=O)N(C)C(=O)C3N2NC(=O)OC(C)(C)C)c2ccccc12 (stereo unspecified) | No

**Q:** Is the recorded value of composite z-score equal to or greater than 0.7 for this compound? O=C(CS)NCCCCCNC(=O)[C@@H]1C[C@@H]2C(=O)NCC(=O)N2[C@@H]1c1ccc(O)cc1
**A:** No

**Q:** Also COCCCNC(=O)[C@]1(Cc2ccccc2)N=C(c2ccc(OCCCO)cc2)O[C@@H]1c1ccccc1CN=[N+]=[N-] ?
**A:** No

----------
- assay comment: probe aLAP1 signal on lysate-treated microarray – cell lysate, small-molecule microarray, COS7 lysate, primary screen (AID 1124);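 also: lysate comes from COS7 cells expressing LAP1 and is applied at 0.3 µg/mL; score merges spot fluorescence near 667 nm with signal-to-noise over triplicate slides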
- measurement context: probe aLAP1, fluorescence, higher = more signal
Reported composite z-score maps to class as: small value: < 0.2; mid value: ≥ 0.2 and < 0.7; large value: ≥ 0.7

molecule | class name
COCCOC(=O)N1C(=O)[C@@]2(c3cc(C#CC4(O)CCCCCC4)ccc31)[C@H](C(=O)Nc1nc3ccccc3s1)[C@H]1C(=O)O[C@H](c3ccccc3)[C@H](c3ccccc3)N1[C@@H]2c1ccc(OCCO)cc1 | mid value
C=CCNC(=O)[C@H]1[C@@H]2C(=O)O[C@@H](c3ccccc3)[C@@H](c3ccccc3)N2[C@@H](c2ccc(O)cc2)[C@]12C(=O)Nc1ccc(C#CCCO)cc12 | large value
O=C1C[C@@](C(=O)NCc2ccccc2)(c2ccc([N+](=O)[O-])cc2)[C@@H](c2ccc(CO)cc2)N1CC12CC3CC(CC(C3)C1)C2 | large value
CC(C)[Si](C#CCCCC#N)(O[C@H](c1ccccc1)c1cn(Cc2cccc(Cl)c2)nn1)C(C)C | small value

**Q:** For this molecule, which bin applies? [N-]=[N+]=NCc1ccccc1[C@@H]1OC(c2ccc(OCCCO)cc2)=N[C@]1(CCS(=O)(=O)c1ccccc1)C(=O)N1CCOCC1
**A:** mid value

**Q:** Also CC1CC/C=C\[C@H]2OC34C=CCN(c5ccc6ccccc6c5)C(=O)[C@H]3N(CCO)C(=O)[C@@H]4C2C(=O)O1 (some centres not stated) ?
**A:** large value

**Q:** Also CC#CC(=O)Oc1ccc(Br)cc1C=CC(=O)OCC ?
**A:** small value

**Q:** Also CC(C)C(=C=CC[C@H](O)c1ccc(CO)o1)CCO ?
**A:** large value

**Q:** Also CN(C)CCCCNC(=O)[C@@H]1C[C@@H]2C(=O)N[C@@H](CCCCN)C(=O)N2[C@@H]1c1ccc(O)cc1 ?
**A:** small value

**Q:** Also O=C1O[C@@H](c2ccccc2)[C@@H](c2ccccc2)N2[C@@H](c3ccc(OCCO)cc3)[C@]3(C(=O)Nc4ccc(C#CC5=CCCCC5)cc43)[C@@H](C(=O)N3CCCCCCC3)[C@H]12 ?
**A:** large value

**Q:** Also O=C1NC(=O)C2C1C=CC(C(O)c1ccc(I)cc1)N2Nc1ccccn1 (configuration not stated) ?
**A:** large value

**Q:** Also C=CCOC(=O)[C@H]1[C@@H]2C(=O)O[C@@H](c3ccccc3)[C@@H](c3ccccc3)N2[C@@H](c2ccc(OCCOC(=O)[C@@H]3C[C@@H]4C(=O)N5CCC[C@H]5C(=O)N4[C@@H]3c3cccc(OCCO)c3)cc2)[C@]12C(=O)Nc1ccc(I)cc12 ?
**A:** mid value

**Q:** Also O=C(NCc1ccccc1)[C@@H]1c2ccccc2C(=O)N(C2Cc3ccccc3C2)[C@H]1c1ccc(CO)cc1 ?
**A:** small value

**Q:** Also COC(=O)c1c(CC[C@@H](CO)NC(=O)N[C@H](Cc2ccccc2)Cn2cc(-c3ccccn3)nn2)oc(C(C)=O)c1C(=O)OC ?
**A:** large value

**Q:** Also COC(=O)c1c(CC[C@@H](CO)NC(=O)N[C@@H](Cc2ccccc2)Cn2cc(-c3ccccn3)nn2)oc(C(=O)N2CCOCC2)c1C(=O)OC ?
**A:** small value

**Q:** Also O=C1OCCC/C=C\[C@H]2OC34C=CCN(c5ccc6ccccc6c5)C(=O)[C@H]3N(CCCCCO)C(=O)[C@@H]4C12 (some centres not stated) ?
**A:** small value

----------
- Test system: Neuregulin-1 EGF-like domain
- assay comment: small molecules binding NRG1 EGF domain – biochemical, small-molecule microarray, 635 nm fluorescence, primary screen (AID 1081);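 also: binding of the protein to compounds printed on small-molecule microarray slides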
- measurement context: higher = more signal
We begin with a simple list: items and their reported composite z-score.
// keep it numeric: no unit symbol after the value

**Q:** Name the recorded composite z-score for COCCOC(=O)N1C(=O)[C@@]2(c3ccccc31)[C@H](C(=O)N1CCCCCCC1)[C@H]1C(=O)O[C@H](c3ccccc3)[C@H](c3ccccc3)N1[C@@H]2c1ccc(OCCO)cc1 .
**A:** 1.5

**Q:** Also COC(=O)[C@@]1(Cc2ccccc2)[C@H]2c3cc(C(=O)N4CCCC4)n(Cc4c(CO)[nH]cc(C)c4=O)c3C[C@H]2CN1C(=O)c1ccccc1 ?
**A:** 1.17

**Q:** Also C[N+](C)(C)CCCC[C@@H]1NC(=O)[C@@H]2C[C@H](C(=O)NCCCCCCNC(=O)CS)[C@H](c3ccc(O)cc3)N2C1=O ?
**A:** 1.47

**Q:** Also CC(C)CN1C(=O)[C@@]2(c3ccc([N+](=O)[O-])cc3)CC(=O)N(C3CCCCC3)[C@@H]2c2ccc(CO)cc21 ?
**A:** -0.429

----------
We begin with a simple list: items and their reported z-score.
- assay comment: compound effects on differentiated 3T3-L1 adipocyte viability – cell-based, 3T3-L1 adipocytes, calcein-AM fluorescence, 48 h, basal, profiling panel (AID 1163); also: test concentration not given here
- measurement context: 3T3-L1 adipocytes viability, higher = more signal
// keep it numeric: no unit symbol after the value

Use the examples below as a reference point.
compound | measurement name | value reported
O=C1NC(=O)C2C1C=CC(C(O)C=Cc1ccc([N+](=O)[O-])cc1)N2Nc1ccc(Cl)cc1Cl (stereo not drawn) | z-score | -0.122
C=CC[C@]1(C(N)=O)N=C(c2ccc(OCCCO)cc2)O[C@H]1c1ccccc1 | z-score | 0.464
C=CC1c2cc(O)c(OC)cc2CCN1Cc1cccc(OC(F)(F)F)c1 (stereo not drawn) | z-score | 0.566

**Q:** Name the recorded z-score for OCC1C=C(/C=C/c2ccccc2)CN1Cc1ccccc1Br (stereo not drawn) .
**A:** 1.21

**Q:** Also COCCOC(=O)N1C(=O)[C@@]2(c3cc(C#CC4=CCCCC4)ccc31)[C@H](C(N)=O)[C@H]1C(=O)O[C@H](c3ccccc3)[C@H](c3ccccc3)N1[C@@H]2c1ccc(O)cc1 ?
**A:** 0.326

**Q:** Also O=C1NC(=O)C2C1C=CC(C(O)c1ccc(I)cc1)N2Nc1ccccn1 (stereo not drawn) ?
**A:** -0.891

**Q:** Also O=C1OCCC=C[C@H]2OC34C=CCN(c5ccc(Cl)cc5)C(=O)[C@H]3N(CCCO)C(=O)[C@@H]4C12 (stereo partly drawn) ?
**A:** 1.95

**Q:** Also C[N+](C)(C)CCCC[C@@H]1NC(=O)[C@H]2C[C@@H](C(=O)NCCCCCCNC(=O)CS)[C@@H](c3ccc(O)cc3)N2C1=O ?
**A:** -0.267

----------
- System: Noggin (protein binding on small-molecule microarray)
- assay comment: small molecules binding Noggin protein – biochemical, 635/667 nm fluorescence, primary screen (AID 1095);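 also: score merges 667 nm feature fluorescence with signal to noise over triplicate slides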
- measurement context: 635 nm fluorescence, higher = more signal
We begin with a simple list: items and their reported composite z-score.

molecule | target desc | composite z-score
CCCCC(O)C1C=CC2C(=O)N(C)C(=O)C2N1N1CCCCC1 (stereo not given) | Noggin (protein binding on small-molecule microarray) | 0.277
COCC(=C=CC[C@H](O)c1ccccc1OCCO)CCO | Noggin (protein binding on small-molecule microarray) | 0.698
O=C(NCCN1CCOCC1)[C@@H]1c2ccccc2C(=O)N(Cc2cc(C(F)(F)F)cc(C(F)(F)F)c2)[C@H]1c1ccc(CO)cc1 | Noggin (protein binding on small-molecule microarray) | -0.901
C=CC[C@@]1(C(=O)N2CCCCC2)N=C(c2ccc(OCCCO)cc2)O[C@@H]1c1ccccc1N=[N+]=[N-] | Noggin (protein binding on small-molecule microarray) | 0.564

**Q:** Name the recorded composite z-score for COC(=O)[C@@]1(Cc2ccc(OC)cc2)[C@H]2c3cc(C(=O)N4CCCC4)n(CCCNc4ncc(C(F)(F)F)cc4Cl)c3C[C@H]2CN1C(=O)c1ccccc1 .
**A:** 0.341

**Q:** Also O=C1[C@@]23C=C(Br)[C@H](C[C@@H]2COC3)[C@]12CO2 ?
**A:** -1.31
